Cited source for all entries: PubChem BioAssay AID1085

Molecular target: Glycoprotein 42 (Epstein-Barr virus (strain AG876)) (UniProt Q1HVG2)
Sequence (Q1HVG2 whole entry, looked up): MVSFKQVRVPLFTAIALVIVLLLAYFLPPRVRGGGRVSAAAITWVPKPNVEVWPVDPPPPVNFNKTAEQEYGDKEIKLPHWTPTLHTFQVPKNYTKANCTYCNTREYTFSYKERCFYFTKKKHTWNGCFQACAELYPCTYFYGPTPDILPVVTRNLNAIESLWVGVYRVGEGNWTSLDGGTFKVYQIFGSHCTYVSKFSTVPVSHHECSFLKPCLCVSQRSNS
Assay: EBV glycoprotein 42 binding blockers – biochemical, uHTS, fluorescence polarization, primary screen (AID 1085)
Conditions: Fluorescence polarization binding assay, mP read-out; stronger effect = higher value; tested at 21.74 µM
The whole screen tested about 220,000 compounds, of which about 930 (0.42%) were called active. Many of the other results were omitted from the sample, so actives are more common in it than they were.
// reported inhibition for each item listed
Value expressed in %; do not type the unit.

COc1ccccc1NC(=O)CCSc1nnc(-c2ccc(O)cc2)o1 = 16.2
COc1ccccc1NC(=O)C[n+]1ccccc1 = -3.15
O=C(/C=C/Nc1ccc(S(=O)(=O)Nc2cnc3ccccc3n2)cc1)c1cccnc1 = 0.92
COc1ccc(NC(=O)Nc2ccc3nsnc3c2)cc1 = -9.53
CCCCCCCCc1c(O)nc(-n2[nH]c(C)c(CCO)c2=O)[nH]c1=O = -21.7
CC(C)CNC(=O)COC(=O)c1ccccc1OCC(=O)Nc1ccc(Br)cc1 = -2.14
COCCNC(=O)Nc1ccc2nc(-c3ccco3)c(-c3ccco3)nc2c1 = 52.7
Cc1ccc(C(=O)NNc2ncnc3ccccc23)cc1 = -1.4
O=C(NCc1ccccn1)c1ccc2nc(-c3ccco3)c(-c3ccco3)nc2c1 = 33.5
COC(=O)C[n+]1cccc2ccccc21 = 128

Now look at this one.
Lookup: Any idea what its inhibition is? The compound is O=C(NC1CC1)C1=C[C@H](c2c[nH]c3ccccc23)C[C@H](OCc2ccc(CO)cc2)O1
Found: -3.29

----------
Molecular target: Glycoprotein 42 (Epstein-Barr virus (strain AG876))
Assay: EBV glycoprotein 42 binding blockers – biochemical, uHTS, fluorescence polarization, primary screen (AID 1085)
Conditions: Fluorescence polarization binding assay, mP read-out; tested at 21.74 µM
The campaign covered roughly 220,000 compounds. About 930 (0.42%) were called active. Cut-off read from the data, not from the text of the source: active = inhibition above about 50%; inactive = the rest. Only a selection was taken, and actives are over-represented in it overall.
Allowed answers: active, inactive

Lookup: Hey, what did the test say about Cc1cccn2c(=O)c(/C=C3\SC(=S)N(CC(C)C)C3=O)c(NCCCOC(C)C)nc12 ?
Found: active

Lookup: Which outcome was assigned to CNC(=O)c1ccsc1NC(=O)c1ccc(S(=O)(=O)N2CCc3ccccc32)cc1 in this test?
Found: inactive

Lookup: # lookup: test call for Cc1c(NC(=S)NCc2ccc(F)cc2)cccc1[N+](=O)[O-]
Found: inactive

Lookup: Short answer needed: outcome of this test for O=C(COC(=O)CNS(=O)(=O)c1ccccc1)NC12CC3CC(CC(C3)C1)C2 ?
Found: inactive

Lookup: GET /call?item= CCOC(=O)c1cc2n(c1N)-c1ccccc1C2=O returns the recorded outcome of this test.
Found: active

Lookup: Which result was noted for this molecule in the test: COC(=O)CCCC1=CC2=CC(=O)C(C)(OC(=O)c3cccs3)C(=O)C2=CN1CC(C)C (stereo not drawn)
Found: inactive

Lookup: Hello, I am checking results. What call was entered for CN1CCN(CCCCOc2ccccc2-c2ccccc2)CC1 ?
Found: inactive

Lookup: Assay outcome for COc1ccc([N+](=O)[O-])cc1NC(=O)c1ccc(N(Cc2ccccc2C)S(C)(=O)=O)cc1 : what was it?
Found: inactive

Lookup: So what was the verdict on CCOC(=O)c1c(NC(=O)CNC2CCCc3ccccc32)sc(C(N)=O)c1C (stereo not drawn) in this test?
Found: inactive

Lookup: Field: outcome | Entry: COc1cc(/C=C(\C#N)c2nc3c(s2)CC(C)CC3)ccc1O (stereo not drawn)
Found: inactive

Lookup: Name the outcome recorded for CNc1nc2c(C)cccn2c(=O)c1C=Nc1ccc(OC)cc1 in the assay.
Found: inactive
